# studyTarget: recombinant human GST-SYK (Homo sapiens, UniProt P43405)
# Construct: purchased Carna Biosciences 08-176
# assayProcedure: Homogeneous Time-Resolved Fluorescence (HTRF) assay for the recombinant human Syk enzyme
# Format: biochemical
# settings: HTRF assay, recombinant human GST-SYK; IC50 given as class symbols; read-out: rhSYK Activity
# Protocol: Homogeneous Time-Resolved Fluorescence (HTRF) Assay for the Recombinant Human Syk Enzyme A recombinant GST-hSYK fusion protein was used to measure potency of compounds to inhibit human Syk activity. […] The resulting HTRF signal was measured after 30 minutes on an EnVision (Perkin-Elmer) reader using a time-resolved fluorescence protocol.
Hi there, I'd appreciate the recorded IC50 for every entry that follows.

Entry under test: Cc1cc(Nc2nccc(C(F)(F)F)n2)cc(-c2ccc([C@]3(O)CC[C@H](C(=O)O)CC3)nc2)c1 [Example 9.35] . Its IC50 was < 100 nM

Entry under test: Cc1cc(Nc2nccc(C(F)(F)F)n2)cc(-c2ccnc(C3(O)COC(C)(C)OC3)c2)c1 [Example 9.62] . Its IC50 was 100 to 1000 nM

Entry under test: Cc1cc(Nc2nccc(C(F)(F)F)n2)cc(-c2ccc(C(F)(F)C(=O)O)nc2)c1 [Example 2.116] . Its IC50 was < 100 nM

Entry under test: Cc1cc(Nc2nccc(C(F)(F)F)n2)cc(-c2ccc(C(=O)NCCS(N)(=O)=O)nc2)c1 [Example 16.50] . Its IC50 was < 100 nM

----------
# studyTarget: recombinant human GST-SYK (Homo sapiens)
# Construct: purchased Carna Biosciences 08-176
# assayProcedure: Homogeneous Time-Resolved Fluorescence (HTRF) assay for the recombinant human Syk enzyme
# Type: biochemical
# settings: HTRF assay, recombinant human GST-SYK; IC50 given as class symbols; read-out: rhSYK Activity
pIC50: −log10 of the molar value.
experimentalEndpoint: pIC50

Entry under test: CCOC(=O)CCc1cncc(-c2cc(C)cc(Nc3nccc(C)n3)c2)c1 [Example 2.88] . Its pIC50 was 6.00 to 7.00

Entry under test: CC(=O)NCCNc1cc(-c2cc(C)cc(Nc3nccc(C(F)(F)F)n3)c2)ccn1 [Example 15.54] . Its pIC50 was > 7.00

Entry under test: Cc1cc(Nc2nccc(C(F)(F)F)n2)cc(-c2ccc(C(=O)NCC3CCC(=O)N3)nc2)c1 (stereo not shown) [Example 16.30] . Its pIC50 was > 7.00

Entry under test: CC(=O)N1CCN(C(=O)c2ccc(-c3cc(C)cc(Nc4nccc(C(F)(F)F)n4)c3)cn2)CC1 [Example 16.24] . Its pIC50 was > 7.00

----------
Hi there, I'd appreciate the recorded pIC50 for every entry that follows.
# studyTarget: recombinant human GST-SYK (Homo sapiens, UniProt P43405)
# Construct: purchased Carna Biosciences 08-176
# assayProcedure: Homogeneous Time-Resolved Fluorescence (HTRF) assay for the recombinant human Syk enzyme
# Assay type: biochemical
# settings: HTRF assay, recombinant human GST-SYK; IC50 given as class symbols; read-out: rhSYK Activity
pIC50: −log10 of the molar value.

Entry under test: `Cc1cc(Nc2nccc(C(F)(F)F)n2)cc(-c2ccc(N3CCN(CCCC(=O)O)CC3)nc2)c1` . Its pIC50 was > 7.00

Entry under test: CCCCOC(=O)C1CCC(C(C)(O)c2ccc(-c3cc(C)cc(Nc4nccc(C(F)F)n4)c3)cn2)CC1 (single isomer, unassigned) . Its pIC50 was 6.00 to 7.00

Entry under test: `CNc1ncc(-c2cc(C)cc(Nc3nccc(C(F)(F)F)n3)c2)cc1C(=O)O` . Its pIC50 was > 7.00

Entry under test: Cc1cc(Nc2nccc(C(F)(F)F)n2)cc(-c2ccc(C(=O)N(C)CC(O)CO)nc2)c1 (stereo not drawn) . Its pIC50 was > 7.00

Entry under test: `Cc1cc(Nc2nccc(C(F)(F)F)n2)cc(-c2ccc(C(=O)NC3CC3)nc2)c1` . Its pIC50 was 6.00 to 7.00

Entry under test: `Cc1cc(Nc2nccc(C(F)(F)F)n2)cc(-c2ccc(C(=O)N(C)CCS(C)(=O)=O)nc2)c1` . Its pIC50 was > 7.00

Entry under test: `Cc1cc(Nc2nccc(C(F)(F)F)n2)cc(-c2ccc(/C=C/C(=O)O)nc2)c1` . Its pIC50 was > 7.00

Entry under test: CCOC(=O)C1CCC(O)(c2ccc(-c3cc(C)cc(Nc4nccc(C(F)(F)F)n4)c3)cn2)CC1(C)C (stereo not drawn) . Its pIC50 was 6.00 to 7.00

Entry under test: `Cc1cc(Nc2nccc(C(F)(F)F)n2)cc(-c2ccc(N[C@@H](Cc3c[nH]cn3)C(=O)O)nc2)c1` . Its pIC50 was > 7.00

Entry under test: `CNC(=O)CCNc1cc(-c2cc(C)cc(Nc3nccc(C(F)(F)F)n3)c2)ccn1` . Its pIC50 was 6.00 to 7.00

Entry under test: Cc1cc(Nc2nccc(C(F)(F)F)n2)cc(-c2ccnc(N3CC(C)NC(C)C3)c2)c1 (stereo not drawn) [Example 15.85] . Its pIC50 was > 7.00

Entry under test: `Cc1cc(Nc2nccc(C(F)(F)F)n2)cc(-c2cncc(C(F)(F)F)c2)c1` . Its pIC50 was 6.00 to 7.00

Entry under test: `Cc1cc(Nc2nccc(C(F)(F)F)n2)cc(-c2ccc(N[C@@H](C)C(=O)O)nc2)c1` . Its pIC50 was > 7.00

Entry under test: `Cc1cc(Nc2nccc(C(F)(F)F)n2)cc(-c2ccnc(C3(O)CCC3)c2)c1` . Its pIC50 was > 7.00

Entry under test: `Cc1cc(Nc2ncc(F)c(C)n2)cc(-c2ccc(N[C@H]3CC[C@H](C(=O)O)CC3)nc2)c1` . Its pIC50 was > 7.00
